Test system: Streptomyces coelicolor
Experiment: Antimicrobial activity against paromomycin-resistant Streptomyces coelicolor SP1 harboring rpsL A262G and C271T mutant gene after 48 hrs
Assay type: functional
Conditions: SP1, 48 h
So I've got a bunch of molecules here, and I need their MIC values.
Just the number in mg/L, nothing appended.

I'd like to know its MIC. The molecule in question is CCC[C@@H]1C[C@@H](C(=O)N[C@@H]([C@H]2O[C@H](SC)[C@H](O)[C@@H](O)[C@H]2O)[C@@H](C)O)N(C)C1
40

I'd like to know its MIC. The molecule in question is CN[C@@H]1[C@@H](O)[C@@H](O[C@@H]2[C@@H](O)[C@H](O[C@H]3O[C@H]([C@@H](C)O)[C@@H](O)[C@H](O)[C@H]3N)[C@@H](N)C[C@H]2N)OC[C@]1(C)O
0.5

I'd like to know its MIC. The molecule in question is NC[C@@H]1O[C@H](O[C@H]2[C@@H](O)[C@H](O[C@@H]3[C@@H](O)[C@H](N)C[C@H](N)[C@H]3O[C@H]3O[C@H](CN)[C@@H](O)[C@H](O)[C@H]3N)O[C@@H]2CO)[C@H](N)[C@@H](O)[C@@H]1O
0.2

I'd like to know its MIC. The molecule in question is CC(=O)O[C@H]1C[C@@]2(C)[C@@H](C[C@@H](O)[C@H]3[C@@]4(C)CC[C@@H](O)[C@@H](C)[C@@H]4CC[C@@]32C)/C1=C(\CCC=C(C)C)C(=O)O
20

I'd like to know its MIC. The molecule in question is CN[C@@H]1[C@H](O[C@H]2[C@H](O[C@H]3[C@H](O)[C@@H](O)[C@H](N=C(N)N)[C@@H](O)[C@@H]3N=C(N)N)O[C@@H](C)[C@]2(O)C=O)O[C@@H](CO)[C@H](O)[C@H]1O
200

###

So I've got a bunch of molecules here, and I need their log10 of MIC values.
Tested on: Streptomyces coelicolor
Test: Antimicrobial activity against streptomycin-resistant Streptomyces coelicolor KO-178 harboring rpsL K88E mutant gene after 48 hrs
Assay type: functional
Details: KO-178, 48 h
Form field - Quantity: MIC; Unit: µg/mL; Scale: log10

I'd like to know its log10 of MIC. The molecule in question is CC(=O)O[C@H]1C[C@@]2(C)[C@@H](C[C@@H](O)[C@H]3[C@@]4(C)CC[C@@H](O)[C@@H](C)[C@@H]4CC[C@@]32C)/C1=C(\CCC=C(C)C)C(=O)O
1.70

I'd like to know its log10 of MIC. The molecule in question is NC[C@@H]1O[C@H](O[C@H]2[C@@H](O)[C@H](O[C@@H]3[C@@H](O)[C@H](N)C[C@H](N)[C@H]3O[C@H]3O[C@H](CN)[C@@H](O)[C@H](O)[C@H]3N)O[C@@H]2CO)[C@H](N)[C@@H](O)[C@@H]1O
-0.10

I'd like to know its log10 of MIC. The molecule in question is CN[C@@H]1[C@@H](O)[C@@H](O[C@@H]2[C@@H](O)[C@H](O[C@H]3O[C@H]([C@@H](C)O)[C@@H](O)[C@H](O)[C@H]3N)[C@@H](N)C[C@H]2N)OC[C@]1(C)O
-0.52

I'd like to know its log10 of MIC. The molecule in question is CCC[C@@H]1C[C@@H](C(=O)N[C@@H]([C@H]2O[C@H](SC)[C@H](O)[C@@H](O)[C@H]2O)[C@@H](C)O)N(C)C1
1.60

I'd like to know its log10 of MIC. The molecule in question is CN(C)[C@@H]1C(O)=C(C(N)=O)C(=O)[C@@]2(O)C(O)=C3C(=O)c4c(O)cccc4[C@@](C)(O)[C@H]3C[C@@H]12
1.00

I'd like to know its log10 of MIC. The molecule in question is NC[C@@H]1O[C@H](O[C@H]2[C@@H](O)[C@H](O[C@@H]3[C@@H](O)[C@H](N)C[C@H](N)[C@H]3O[C@H]3O[C@H](CO)[C@@H](O)[C@H](O)[C@H]3N)O[C@@H]2CO)[C@H](N)[C@@H](O)[C@@H]1O
-0.52

I'd like to know its log10 of MIC. The molecule in question is CN[C@@H]1[C@H](O[C@H]2[C@H](O[C@H]3[C@H](O)[C@@H](O)[C@H](N=C(N)N)[C@@H](O)[C@@H]3N=C(N)N)O[C@@H](C)[C@]2(O)C=O)O[C@@H](CO)[C@H](O)[C@H]1O
2.00

I'd like to know its log10 of MIC. The molecule in question is NC[C@H]1O[C@H](O[C@H]2[C@H](O)[C@@H](O[C@H]3O[C@H](CO)[C@@H](O)[C@H](N)[C@H]3O)[C@H](N)C[C@@H]2N)[C@H](O)[C@@H](O)[C@@H]1O
-0.10

###

Test system: Streptomyces coelicolor
Assay: Antimicrobial activity against paromomycin-resistant Streptomyces coelicolor SP2 harboring rpsL K88E mutant gene and inserted glycine at position 92 of the gene after 48 hrs
Type: functional
Conditions: SP2, 48 h
Parameter: log10 MIC (log10 of the value in µg/mL)
Form field - Quantity: MIC; Unit: µg/mL; Scale: log10

I'd like to know its log10 MIC. The compound in question is CC(=O)O[C@H]1C[C@@]2(C)[C@@H](C[C@@H](O)[C@H]3[C@@]4(C)CC[C@@H](O)[C@@H](C)[C@@H]4CC[C@@]32C)/C1=C(\CCC=C(C)C)C(=O)O [FUSIDIC ACID]
1.30

I'd like to know its log10 MIC. The compound in question is CCC[C@@H]1C[C@@H](C(=O)N[C@@H]([C@H]2O[C@H](SC)[C@H](O)[C@@H](O)[C@H]2O)[C@@H](C)O)N(C)C1 [LINCOMYCIN]
1.00

I'd like to know its log10 MIC. The compound in question is NC[C@H]1O[C@H](O[C@H]2[C@H](O)[C@@H](O[C@H]3O[C@H](CO)[C@@H](O)[C@H](N)[C@H]3O)[C@H](N)C[C@@H]2N)[C@H](O)[C@@H](O)[C@@H]1O [KANAMYCIN]
-0.30

I'd like to know its log10 MIC. The compound in question is CN(C)[C@@H]1C(O)=C(C(N)=O)C(=O)[C@@]2(O)C(O)=C3C(=O)c4c(O)cccc4[C@@](C)(O)[C@H]3C[C@@H]12 [TETRACYCLINE]
0.48

I'd like to know its log10 MIC. The compound in question is NC[C@@H]1O[C@H](O[C@H]2[C@@H](O)[C@H](O[C@@H]3[C@@H](O)[C@H](N)C[C@H](N)[C@H]3O[C@H]3O[C@H](CN)[C@@H](O)[C@H](O)[C@H]3N)O[C@@H]2CO)[C@H](N)[C@@H](O)[C@@H]1O [FRAMYCETIN]
-0.70

I'd like to know its log10 MIC. The compound in question is NC[C@@H]1O[C@H](O[C@H]2[C@@H](O)[C@H](O[C@@H]3[C@@H](O)[C@H](N)C[C@H](N)[C@H]3O[C@H]3O[C@H](CO)[C@@H](O)[C@H](O)[C@H]3N)O[C@@H]2CO)[C@H](N)[C@@H](O)[C@@H]1O [PAROMOMYCIN]
0.48

I'd like to know its log10 MIC. The compound in question is CN[C@@H]1[C@@H](O)[C@@H](O[C@@H]2[C@@H](O)[C@H](O[C@H]3O[C@H]([C@@H](C)O)[C@@H](O)[C@H](O)[C@H]3N)[C@@H](N)C[C@H]2N)OC[C@]1(C)O [GENETICIN]
-0.30

###

Test system: Streptomyces coelicolor
Assay: Antimicrobial activity against paromomycin-resistant Streptomyces coelicolor SP1 harboring rpsL A262G and C271T mutant gene after 48 hrs
Assay type: functional
Conditions: SP1, 48 h
Parameter: MIC (µg/mL)
Just the number in µg/mL, nothing appended.

Recorded MIC for NC[C@H]1O[C@H](O[C@H]2[C@H](O)[C@@H](O[C@H]3O[C@H](CO)[C@@H](O)[C@H](N)[C@H]3O)[C@H](N)C[C@@H]2N)[C@H](O)[C@@H](O)[C@@H]1O with Streptomyces coelicolor, please?
0.5

Recorded MIC for CN(C)[C@@H]1C(O)=C(C(N)=O)C(=O)[C@@]2(O)C(O)=C3C(=O)c4c(O)cccc4[C@@](C)(O)[C@H]3C[C@@H]12 with Streptomyces coelicolor, please?
3

Recorded MIC for NC[C@@H]1O[C@H](O[C@H]2[C@@H](O)[C@H](O[C@@H]3[C@@H](O)[C@H](N)C[C@H](N)[C@H]3O[C@H]3O[C@H](CO)[C@@H](O)[C@H](O)[C@H]3N)O[C@@H]2CO)[C@H](N)[C@@H](O)[C@@H]1O with Streptomyces coelicolor, please?
2
